testTarget: His-tagged KRAS G12D protein (Homo sapiens, UniProt P01116, G12D)
Sequence (P01116 1-188 isoform P01116-2 G12D): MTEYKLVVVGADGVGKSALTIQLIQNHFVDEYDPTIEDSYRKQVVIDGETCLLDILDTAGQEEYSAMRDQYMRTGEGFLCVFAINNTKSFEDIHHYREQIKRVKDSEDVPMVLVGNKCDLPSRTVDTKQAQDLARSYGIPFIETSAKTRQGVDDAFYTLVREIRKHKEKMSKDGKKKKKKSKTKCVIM
procedureDetails: KRAS G12D TR-FRET Assay
measureName: pIC50
Scale for pIC50: -log10 of concentration given in mol/L; no unit attached.

Example results:
INSERT INTO assay_data (molecule, measurename, reading) VALUES
  ('C#Cc1c(F)ccc2cc(O)cc(-c3c(F)cc4c(N5CCC[C@@](C)(O)C5)nc(OC[C@@]56CCCN5C[C@H](F)C6)nc4c3F)c12 (single isomer, unassigned) [Example 13]', 'pIC50', 6.01),
  ('C#Cc1c(F)ccc2cccc(-c3c(F)cc4c(N5CCC[C@@](C)(O)C5)nc(OC[C@@]56CCCN5C[C@H](F)C6)nc4c3F)c12 (single isomer, unassigned) [Example 66]', 'pIC50', 6.18),
  ('CCc1cccc2cc(O)cc(-c3c(C#N)cc4c(N5CCCOCC5)nc(OC[C@@]56CCCN5C[C@H](F)C6)nc4c3F)c12', 'pIC50', 7.92),
  ('C#Cc1c(F)ccc2cc(N)cc(-c3ccc4c(N5CCC[C@@](C)(O)C5)nc(OC[C@@]56CCCN5C[C@H](F)C6)nc4c3F)c12', 'pIC50', 7.96),
  ('CCc1c(F)ccc2cc(O)cc(-c3ccc4c(N5CCCC6(CC(=O)N6)C5)nc(OC[C@@]56CCCN5C[C@H](F)C6)nc4c3F)c12 (some centres unmarked)', 'pIC50', 8.52),
  ('Oc1cc(-c2c(F)cc3c(N4CCC[C@]5(CCO5)C4)nc(OC[C@@]45CCCN4C[C@H](F)C5)nc3c2F)c2c(Cl)c(F)ccc2c1', 'pIC50', 8.30),
  ('C[C@@]1(O)CCCN(c2nc(OC[C@@]34CCCN3C[C@H](F)C4)nc3c(F)c(-c4cc(O)cc(Cl)c4C4CC4)c(F)cc23)C1', 'pIC50', 8.30),
  ('CCc1c(F)ccc2cc(O)cc(-c3ccc4c(N5CCCC6(CNC6=O)C5)nc(OC[C@@]56CCCN5C[C@H](F)C6)nc4c3F)c12 (some centres unmarked)', 'pIC50', 8.00),
  ('C#Cc1cccc2cc(O)cc(-c3c(F)cc4c(N5CCC[C@@](C)(O)C5)nc(OC[C@@]56CCCN5C[C@H](F)C6)nc4c3F)c12 (single isomer, unassigned) [Example 12]', 'pIC50', 9.00),
  ('CCc1c(F)ccc2cc(O)cc(-c3c(F)cc4c(N5CCC[C@]6(COC(=O)O6)C5)nc(OC[C@@]56CCCN5C[C@H](F)C6)nc4c3F)c12 (single isomer, unassigned)', 'pIC50', 8.15);

For the next question, use this molecule.
What does the record list as pIC50 for C/C=C\c1c(Cl)cc2[nH]ncc2c1-c1ccc2c(N3CCC[C@]4(CCO4)C3)nc(OC[C@@]34CCCN3C[C@H](F)C4)nc2c1F ?
8.52

* * *

testTarget: His-tagged KRAS G12D protein (Homo sapiens, UniProt P01116, G12D)
procedureDetails: KRAS G12D TR-FRET Assay
Protocol: KRAS G12D TR-FRET Assay Compounds of interest were prepared in a dose-response titration in DMSO, and 80 nL were added via Labcyte Echo to each well of a 384-well plate (Perkin Elmer 6008280). […] Plates were read using PerkinElmer EnVision (ex: 320 nm, em1: 665 nm, em2: 615 nm) and em1/em2 data was used to generate curve fits using a 4-parameter logistic model to calculate IC50 values.
measureName: IC50 (nM)
A number alone suffices; assume nM.

Example results:
INSERT INTO measurements (molecule, reading) VALUES
  ('CCc1c(F)ccc2cc(O)cc(-c3c(F)cc4c(N5CCOCC(C)(O)C5)nc(OC[C@@]56CCCN5C[C@H](F)C6)nc4c3F)c12 (single isomer, unassigned) [Example 34]', 2),
  ('Oc1cc(-c2ccc3c(N4CCCOCC4)nc(OC[C@]45CCCN4C[C@H](F)C5)nc3c2F)c2ccccc2c1', 23),
  ('O=C1NC[C@]2(CCCN(c3nc(OC[C@@]45CCCN4C[C@H](F)C5)nc4c(F)c(-c5cc(O)cc(Cl)c5C5CC5)ccc34)C2)O1', 5),
  ('C#Cc1c(F)ccc2cc(N)cc(-c3c(F)cc4c(N5CCCC6(CNC(=O)O6)C5)nc(OC[C@@]56CCCN5C[C@H](F)C6)nc4c3F)c12 (some centres unmarked)', 11),
  ('C[C@@]1(O)CCCN(c2nc(OC[C@@]34CCCN3C[C@H](F)C4)nc3c(F)c(-c4cc(N)cc(Cl)c4C(F)(F)F)ccc23)C1', 15);

Query for His-tagged KRAS G12D protein (Homo sapiens, UniProt P01116, G12D): what IC50 does the record show for CCc1c(F)ccc2cc(O)cc(-c3ccc4c(N5CCCC6(CNC(=O)O6)C5)nc(OC[C@@]56CCCN5C[C@H](F)C6)nc4c3F)c12 (some centres unmarked) ?
3

Query for His-tagged KRAS G12D protein (Homo sapiens, UniProt P01116, G12D): what IC50 does the record show for C/C=C\c1c(Cl)cc2[nH]ncc2c1-c1c(F)cc2c(N3CCC[C@@](C)(O)C3)nc(OC[C@@]34CCCN3C[C@H](F)C4)nc2c1F [Example 119] ?
16

Query for His-tagged KRAS G12D protein (Homo sapiens, UniProt P01116, G12D): what IC50 does the record show for C[C@@H]1CC1c1c(Cl)cc2[nH]ncc2c1-c1c(F)cc2c(N3CCOCC(O)(CF)C3)nc(OC[C@@]34CCCN3C[C@H](F)C4)nc2c1F (single isomer, unassigned) ?
9

Query for His-tagged KRAS G12D protein (Homo sapiens, UniProt P01116, G12D): what IC50 does the record show for CCc1c(F)ccc2cc(O)cc(-c3c(F)cc4c(N5C[C@H]6CC[C@@H](C5)O6)nc(OC[C@@]56CCCN5C[C@H](F)C6)nc4c3F)c12 (relative stereo) ?
46

Query for His-tagged KRAS G12D protein (Homo sapiens, UniProt P01116, G12D): what IC50 does the record show for CCc1c(F)ccc2cc(O)cc(-c3c(F)cc4c(N5CCCC(O)(C(F)F)C5)nc(OC[C@@]56CCCN5C[C@H](F)C6)nc4c3F)c12 (single isomer, unassigned) [Example 20] ?
2

Query for His-tagged KRAS G12D protein (Homo sapiens, UniProt P01116, G12D): what IC50 does the record show for CCc1c(F)ccc2cc(O)cc(-c3ccc4c(N5CCC[C@]6(CCO6)C5)nc(OC[C@@]56CCCN5C[C@H](F)C6)nc4c3F)c12 (single isomer, unassigned) ?
5

* * *

Listed here: items and their measured IC50.
testTarget: GDP-bound KRAS protein (aa 1-169), containing both G12D and C118A amino acid substitutions (Homo sapiens, UniProt P01116, C118A/G12D)
Sequence (P01116 1-169 isoform P01116-2 G12D/C118A): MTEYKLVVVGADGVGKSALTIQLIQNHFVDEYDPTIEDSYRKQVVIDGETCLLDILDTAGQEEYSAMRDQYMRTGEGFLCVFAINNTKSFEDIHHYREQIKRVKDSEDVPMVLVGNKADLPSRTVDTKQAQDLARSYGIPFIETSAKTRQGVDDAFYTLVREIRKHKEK
procedureDetails: KRAS G12D Coupled Nucleotide Exchange Assay
Assay type: biochemical
Please state the value followed by its unit.

Example results:
INSERT INTO measurements (molecule, reading) VALUES
  ('C#Cc1c(F)ccc2cc(N)cc(-c3c(F)cc4c(N5CCC[C@@](C)(O)C5)nc(OC[C@@]56CCCN5C[C@H](F)C6)nc4c3F)c12 (single isomer, unassigned) [Example 63]', '138 nM'),
  ('Oc1cc(-c2ccc3c(N4CCCOCC4)nc(OC[C@]45CCCN4C[C@H](F)C5)nc3c2F)c2ccccc2c1 [Example 41]', '23 nM');

What does the record list as IC50 for CCc1c(F)ccc2cc(N)cc(-c3c(F)cc4c(N5CCC[C@]6(CNC(=O)O6)C5)nc(OC[C@@]56CCCN5C[C@H](F)C6)nc4c3F)c12 (single isomer, unassigned) [Example 97] ?
2 nM

What does the record list as IC50 for C/C=C\c1c(Cl)cc2[nH]ncc2c1-c1ccc2c(N3CCC[C@@](C)(O)C3)nc(OC[C@@]34CCCN3C[C@H](F)C4)nc2c1F [Example 108] ?
3 nM

What does the record list as IC50 for CCc1cccc2cc(O)cc(-c3c(F)cc4c(N5CCOCC(C)(O)C5)nc(OC[C@@]56CCCN5C[C@H](F)C6)nc4c3F)c12 (single isomer, unassigned) [Example 33] ?
3 nM

* * *

testTarget: His-tagged KRAS G12D protein (Homo sapiens, UniProt P01116, G12D)
procedureDetails: KRAS G12D TR-FRET Assay
measureName: pIC50
Scale for pIC50: -log10 of concentration given in mol/L; no unit attached.

Example results:
INSERT INTO measurements (compound, reading) VALUES
  ('Oc1cc(-c2c(F)cc3c(N4CCC[C@]5(CCO5)C4)nc(OC[C@@]45CCCN4C[C@H](F)C5)nc3c2F)c2c(F)c(F)ccc2c1', 8.05),
  ('CCc1c(F)ccc2cc(N)cc(-c3c(F)cc4c(N5CCOCC(C)(O)C5)nc(OC[C@@]56CCCN5C[C@H](F)C6)nc4c3F)c12 (single isomer, unassigned) [Example 71]', 6.95);

What does the record list as pIC50 for Oc1cc(Cl)c(C2CC2)c(-c2ccc3c(N4CCCOCC4)nc(OC[C@@]45CCCN4C[C@H](F)C5)nc3c2F)c1 ?
7.92

What does the record list as pIC50 for CCc1c(F)ccc2cc(O)cc(-c3ccc4c(N5CC6CC(O)C(C6)C5)nc(OC[C@@]56CCCN5C[C@H](F)C6)nc4c3F)c12 (single isomer, unassigned) ?
8.40

What does the record list as pIC50 for CCc1c(F)ccc2cc(N)cc(-c3c(F)cc4c(N5CCC[C@@](C)(O)C5)nc(OC[C@@]56CCCN5C[C@H](F)C6)nc4c3F)c12 (single isomer, unassigned) [Example 62] ?
7.77
